- assay.notes: self-splicing fitness, log relative to wild type (ln ratio); higher = more splicing; Tetrahymena group I intron in knt gene, E. coli kanamycin selection, DiMSum; sequences stand for … in CUCUCU…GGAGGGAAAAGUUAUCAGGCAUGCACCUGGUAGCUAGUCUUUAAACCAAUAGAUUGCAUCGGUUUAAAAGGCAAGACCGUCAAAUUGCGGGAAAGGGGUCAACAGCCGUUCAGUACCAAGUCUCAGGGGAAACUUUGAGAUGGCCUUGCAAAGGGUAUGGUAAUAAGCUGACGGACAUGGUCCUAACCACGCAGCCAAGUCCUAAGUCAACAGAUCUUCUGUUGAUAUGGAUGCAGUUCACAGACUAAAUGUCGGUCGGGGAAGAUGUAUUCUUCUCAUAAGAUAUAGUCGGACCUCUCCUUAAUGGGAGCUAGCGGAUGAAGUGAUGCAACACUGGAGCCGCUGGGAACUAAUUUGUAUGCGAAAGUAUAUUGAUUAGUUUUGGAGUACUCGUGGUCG;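 also: selection with 25 µg/mL kanamycin versus none on LB agar overnight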
- conditions: 30 °C
Decide using self-splicing fitness (ln): a value greater than or equal to -2 is MET, a smaller one is NOT MET.

These recorded examples may help you get a feel for the data.
GCACAGCAAUAUUACGGUUU = MET
AAUGAGCAAUAUUACGGGAU = NOT MET
ACCGAGCAAUAUUACGGAUG = NOT MET
AGCCAGCAAUAUUACGCCGC = NOT MET
AAUGAGCAAUAUUACGAUUC = NOT MET
CUUCAGCAAUAUUACGAUGA = NOT MET
CAUAAGCAAUAUUACGACUC = NOT MET
CAGCAGCAAUAUUACGAUCC = NOT MET

Next item in the queue.
## Task Is reported self-splicing fitness (ln) greater than or equal to -2 here: UCAUAGCAAUAUUACGUACU
## Result NOT MET

----------
Answer each item with its documented self-splicing fitness (ln).
- assay.notes: self-splicing fitness, log relative to wild type (ln ratio); higher = more splicing; Tetrahymena group I intron in knt gene, E. coli kanamycin selection, DiMSum; sequences stand for … in CUCUCU…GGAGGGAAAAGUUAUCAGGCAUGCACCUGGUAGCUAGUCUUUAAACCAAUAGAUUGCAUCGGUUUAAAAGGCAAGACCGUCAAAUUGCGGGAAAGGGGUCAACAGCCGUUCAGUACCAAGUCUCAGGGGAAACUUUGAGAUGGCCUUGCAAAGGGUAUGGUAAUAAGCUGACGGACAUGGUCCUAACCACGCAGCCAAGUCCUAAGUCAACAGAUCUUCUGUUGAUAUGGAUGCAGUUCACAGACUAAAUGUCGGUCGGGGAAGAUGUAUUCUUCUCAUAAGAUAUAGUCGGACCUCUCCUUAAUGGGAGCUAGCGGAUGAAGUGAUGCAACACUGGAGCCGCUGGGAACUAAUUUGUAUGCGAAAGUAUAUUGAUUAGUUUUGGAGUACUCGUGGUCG
- conditions: 37 °C

UUUGAGCAAUAUUACGGUUU = -1.92

For the 3 sequences below, give their self-splicing fitness (ln) values.
1. UAGCAGCAAUAUUACGUUAA
2. UGGCAGCAAUAUUACGUUUC
3. AAAGAGCAAUAUUACGUCCA

## Result
1: -1.15; 2: -2.77; 3: -1.93

For the 6 sequences below, give their self-splicing fitness (ln) values.
1. CGUCAGCAAUAUUACGGCCA
2. CAUGAGCAAUAUUACGGUUU
3. AUCAAGCAAUAUUACGCACC
4. AUGUAGCAAUAUUACGCUUU
5. UGUAAGCAAUAUUACGAUCA
6. GUCCAGCAAUAUUACGGAGA

## Result
0.106
-3.01
-0.581
-1.29
0.535
0.585

## Task Any idea what self-splicing fitness (ln) was measured for AUCUAGCAAUAUUACGGGAA ?
## Result -0.903

Recorded values, source the supplement of paper PMC7877785.
